Assay: Human hepatocyte stability test
Format: in vitro ADME
Details: human hepatocytes
reported metric: half-life (min)
The reply should contain only the number, in min.

Examples with their reported half-life follow.
COCCOCCOCCNC(=O)c1cc(Nc2cc(Oc3ccc(NC(=O)Nc4cc(C(C)(C)C)cc(NS(C)(=O)=O)c4OC)c4ccccc34)ccn2)cc(OC)c1: 36
COCCOCCOCCOc1cc(Nc2nccc(Oc3ccc(NC(=O)Nc4cc(C(C)(C)C)cc(NS(C)(=O)=O)c4OC)c4ccccc34)n2)cc(OC)c1: 48

Next item in the queue.
QUERY: For "COc1cc(Nc2cc(Oc3ccc(NC(=O)Nc4cc(C(C)(C)C)cc(NS(C)(=O)=O)c4OC)c4ccccc34)ccn2)cc(C(=O)NCCN2CCOCC2)c1" , what is its reported half-life?
RESULT: 96
